# study.target: UniProt:P08397
# Sequence (whole entry): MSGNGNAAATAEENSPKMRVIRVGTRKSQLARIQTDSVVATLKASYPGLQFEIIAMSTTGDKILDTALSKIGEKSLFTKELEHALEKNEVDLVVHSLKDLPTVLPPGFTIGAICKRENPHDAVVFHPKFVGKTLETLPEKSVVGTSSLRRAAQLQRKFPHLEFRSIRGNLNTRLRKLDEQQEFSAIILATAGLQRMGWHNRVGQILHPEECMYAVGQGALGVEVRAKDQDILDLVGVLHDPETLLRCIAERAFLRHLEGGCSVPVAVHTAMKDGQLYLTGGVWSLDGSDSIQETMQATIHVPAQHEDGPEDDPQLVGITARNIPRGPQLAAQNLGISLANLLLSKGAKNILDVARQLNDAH
# experimental.setup: at 100 µM
# Description: Compound was evaluated for the inhibition of human HMBS at 100uM
Active and inactive are the calls of the source. The rule behind the calls is not given here.
readout: inhibition

>>> experimental_value("CC1CCCCN1C(=O)NCCc1coc(-c2ccc(F)cc2)n1 (stereo not drawn)")
"inactive"
>>> experimental_value("COc1ccc(N(CCc2cccc(C)n2)C(=O)C2CCCCC2)cc1")
"inactive"
>>> experimental_value("O=C(Nc1nc(-c2ccccn2)cs1)C1CC1c1ccccc1F (stereo not drawn)")
"inactive"
>>> experimental_value("O=C(C1CCN(c2nnc(-n3cccc3)s2)CC1)N1CCC(Cc2ccccc2)CC1")
"inactive"
>>> experimental_value("CCOc1ccc2cc(-c3nn(C(C)(C)C)c(N)c3C(N)=O)cnc2c1")
"inactive"

State recorded inhibition for all listed compounds.
1. O=C(NCc1ccoc1)N1CCN(Cc2ccc3c(c2)OCO3)CC1
2. COc1cc(C2=NCCN2)cc2cc(-c3ccc(C4=NCCN4)cc3)oc12
3. CN(C(=O)c1cc2c(-c3cncnc3)cccc2[nH]1)c1ccccc1
4. Nc1ncnc2c1c(Cc1cccc3ccccc13)nn2CC1CCNCC1
5. CO/C=C(/C(=O)OC)c1ccccc1Oc1cc(Oc2ccccc2C#N)ncn1
6. O=C(OCc1ccccc1)N1CCC(c2cc(-c3ccncc3)c(-c3ccc(F)cc3)[nH]2)CC1

inactive
inactive
inactive
inactive
inactive
inactive

The following compounds each have a reported value; give each one's inhibition.
1. Nc1ccc2ncnc(Nc3ccc(OCc4cccc(F)c4)c(Cl)c3)c2c1
2. CC(C)/N=c1\cc2n(-c3ccc(Cl)cc3)c3ccccc3nc-2cc1Nc1ccc(Cl)cc1
3. CC(C)(C)n1nc(-c2ccccc2)c2c(N)ncnc21
4. Cc1cc(C(=O)Nc2ccc(-c3ccccc3)cc2)no1
5. COc1ccc(Nc2ccccc2NC(=O)c2ccc(O)nc2)cc1

inactive
inactive
inactive
inactive
inactive

Hey, quick one: what's inhibition for each of these?
1. Cc1cc(NC(=O)c2ccc(Oc3ccc(Cl)cc3O)o2)no1
2. O=C(Nc1nnc(S)s1)c1cc(Br)ccc1Cl
3. O=C(Nc1ccccc1)c1ccc(-c2cc3ccncc3cc2OC2CCNCC2)s1
4. CC(C)(C)n1nc(Cc2cccc3ccccc23)c2c(N)ncnc21
5. Cc1nc(-c2ccccn2)nc(NCCc2ccc(S(C)(=O)=O)cc2)c1Cl
6. COc1cccc(-n2nnnc2S(C)(=O)=O)c1

inactive
inactive
inactive
inactive
inactive
inactive

Name the reported inhibition value associated with the compound `O=C(NC1=NCCS1)c1sc2cc(F)ccc2c1Cl`
inactive
